TGI for assorted molecules
Test system: A498 renal
method_summary: NCI tumour cell line growth inhibition, 48 h
Expressed in µM, but write only the number.

TGI for CC(C)Cc1ccc(C(C)/C=C2\CCC(CN3CCCCC3)C2=O)cc1 (centres undefined) ?
28.2

Okay, and COc1ccc(/C=C2/SC(c3c(O)ccc4ccccc34)N(NC(=O)CCCCCCCCC(=O)NN3C(=O)/C(=C\c4ccc(OC)c(OC)c4)SC3c3c(O)ccc4ccccc34)C2=O)cc1OC (centres undefined) ?
49.3

Next molecule: CC(C)=CCC/C(C)=C/CC/C(C)=C/C1CCC(=O)C1(C)C (centres undefined)
36.9

---
For COc1ccccc1N1CCN(CCCOc2ccc(C(=O)/C=C3/C(=O)Nc4ccccc43)cc2)CC1 , what is its reported TGI?
70.5

What do you have for C=C(C)C1CC2=C(O1)C(=O)c1cccc(O)c1C2=O (centres undefined) ?
10.2

Moving on to the next molecule: Cc1ccccc1C[P+](c1ccccc1)(c1ccccc1)c1ccccc1
12.7

---

Test system: UACC-62 melanoma
method_summary: NCI tumour cell line growth inhibition, 48 h; in the data active = GI50 below about 0.43 µM; inactive = the rest
Your answer must be one of the following: active, inactive

# outcome recorded in this test, key = CCCCCCCCCC[N+](C)(C)C
inactive

What about COc1cc2c(cc1OC)-c1ncc3cc(OC)c(OC)c(OC)c3c1C2 ?
inactive

Others:
GET /call?item= CCN(CC)c1ccc(/C=N/NC(=O)c2ccccc2Nc2ccnc(C(F)(F)F)c2)c(O)c1 returns the recorded outcome of this test.
active

And the next one, COc1cc2c(cc1OC)-c1ncc3cc(OC)c(OC)cc3c1C2 ?
inactive

---

Test system: NCI/ADR-RES ovarian
method_summary: NCI tumour cell line growth inhibition, 48 h; in the data active means GI50 below about 0.43 µM; inactive means the rest
Outcomes you can answer with include only these: YES for active, NO for inactive

Past entries and their recorded results:
Kindly provide the recorded test outcome for the following compound: O=S(=O)(NCCNc1cc(-c2cn(-c3ccccc3)nc2-c2cccc(O)c2)ccn1)c1ccc(Br)cc1
NO

Follow-up item: C[C@@]1(O)CCC[C@H]1n1c(=O)c(C(F)F)cc2cnc(NC3CCN(S(C)(=O)=O)CC3)nc21
NO

What would you report for CCCCCC(=C/c1ccccc1)/C=N/N=C(N)N ?
NO

Then this compound: CCN(CC)c1ccc(/C=N/NC(=O)c2ccccc2Nc2ccnc(C(F)(F)F)c2)c(O)c1
YES

Now this one: NC(Cc1c[nH]c2cc(F)ccc12)C(=O)O (configuration not stated)
NO

Now the compound CN1CCN(c2ccc(-c3cccc(CN4CCOCC4)c3)cc2NC(=O)c2c[nH]c(=O)cc2C(F)(F)F)CC1
NO

And then CC(=Nc1ccccc1)C1=C(O)C(Cc2ccc(F)cc2)NC1=O (configuration not stated) , what is it?
YES

Now try CC(C)=CCc1c(O)c(C(=O)CC(C)C)c(O)c2c(-c3ccccc3)cc(=O)oc12 .
NO

Same lookup for Cc1ccccc1C[P+](c1ccccc1)(c1ccccc1)c1ccccc1 , please.
NO

Note, next up: O=C(N[C@@H](Cc1ccccc1)B(O)O)[C@H](Cc1cccc2ccccc12)NC(=O)N1CCOCC1
NO

***
Identify the outcome logged in this assay for the compound shown: CCCC(=O)Nc1c(I)cc(I)c(CC(CC)C(=O)O)c1I (configuration not stated)
NO

Query COc1ccccc1N1CCN(CCCOc2ccc(C(=O)/C=C3/C(=O)Nc4ccccc43)cc2)CC1 next
NO

Values from PubChem BioAssay (NCI)
